viability, T/C by entry:
# Tested on: KRAS PDC multicell spheroid viability
# Assay method text: Anticancer human tumor 825966-067-R-J1-PDC patient-derived colon carcinoma cell line growth inhibition [KRAS2]
# Condition set: second compound 0.1 µM; first compound 0.0316 µM; hits give low values
Quick note: give the figure in %, leave out the unit.

Worked cases, answers included:
Compound	Measured target	Readout kind	Observed measurement
CC(=O)OC12COC1CC(O)C1(C)C(=O)C(O)C3=C(C)C(OC(=O)C(O)C(NC(=O)OC(C)(C)C)c4ccccc4)CC(O)(C(OC(=O)c4ccccc4)C21)C3(C)C (stereo unspecified) + CC1OCC2(CCN(c3cnc(Sc4ccnc(N)c4Cl)c(N)n3)CC2)C1N	KRAS PDC multicell spheroid viability	viability, T/C	15.2
Cn1ncnc1[C@H]1c2n[nH]c(=O)c3cc(F)cc(c23)N[C@@H]1c1ccc(F)cc1 + C=CC(=O)N1CCN(c2nc(=O)n(-c3c(C)ccnc3C(C)C)c3nc(-c4c(O)cccc4F)c(F)cc23)C(C)C1	KRAS PDC multicell spheroid viability	viability, T/C	90.1
O=C(c1cc(Cc2n[nH]c(=O)c3ccccc23)ccc1F)N1CCN(C(=O)C2CC2)CC1 + C=CC(=O)N1CCN(c2nc(=O)n(-c3c(C)ccnc3C(C)C)c3nc(-c4c(O)cccc4F)c(F)cc23)C(C)C1	KRAS PDC multicell spheroid viability	viability, T/C	97.5
CCNC(=O)CC1N=C(c2ccc(Cl)cc2)c2cc(OC)ccc2-n2c(C)nnc21 (stereo unspecified) + CNCc1ccccc1-c1csc(C(C)Nc2nc(C)nc3cc(OC)c(OC)cc23)c1	KRAS PDC multicell spheroid viability	viability, T/C	90.3
CC1COCCN1c1cc(-c2ccnn2C)c2ccnc(-c3ccn[nH]3)c2n1 (stereo unspecified) + C=CC(=O)N1CCN(c2nc(=O)n(-c3c(C)ccnc3C(C)C)c3nc(-c4c(O)cccc4F)c(F)cc23)C(C)C1	KRAS PDC multicell spheroid viability	viability, T/C	135
CC(=O)Nc1cccc(-n2c(=O)n(C3CC3)c(=O)c3c(Nc4ccc(I)cc4F)n(C)c(=O)c(C)c32)c1 + CC1OCC2(CCN(c3cnc(Sc4ccnc(N)c4Cl)c(N)n3)CC2)C1N	KRAS PDC multicell spheroid viability	viability, T/C	56.5
Cn1nccc1Nc1nccc(-c2cc3c(s2)C(C)(C)N(CCN2CCOCC2)C3=O)n1 + CC1OCC2(CCN(c3cnc(Sc4ccnc(N)c4Cl)c(N)n3)CC2)C1N	KRAS PDC multicell spheroid viability	viability, T/C	125
CC1(C)CCC(CN2CCN(c3ccc(C(=O)NS(=O)(=O)c4ccc(NCC5CCOCC5)c([N+](=O)[O-])c4)c(Oc4cnc5[nH]ccc5c4)c3)CC2)=C(c2ccc(Cl)cc2)C1 + COc1cc2nc(C)nc(NC(C)c3cc(N)cc(C(F)(F)F)c3)c2cc1OC1CCOC1	KRAS PDC multicell spheroid viability	viability, T/C	94.7

Here is the next item to consider.
Entry under review: COc1cc2nccc(Oc3ccc(NC(=O)C4(C(=O)Nc5ccc(F)cc5)CC4)cc3)c2cc1OC + COc1cc2nc(C)nc(NC(C)c3cc(N)cc(C(F)(F)F)c3)c2cc1OC1CCOC1 . Reported viability, T/C?
80.9

* * *

# Test system: KRAS PDC multicell spheroid viability
# Assay method text: Anticancer human tumor 825966-067-R-J1-PDC cell line growth inhibition [KRAS2];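 further: spheroids exposed to compounds for 7 days; 100% = DMSO vehicle control viability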
# Condition set: second compound 0.1 µM; first compound 0.316 µM; hits give low values
Readout kind: viability, T/C (%)
Quick note: give the figure in %, leave out the unit.

Worked cases, answers included:
Compound	Measured target	Unit of measurement	viability, T/C
CC1COCCN1c1cc(-c2ccnn2C)c2ccnc(-c3ccn[nH]3)c2n1 (stereo not drawn) + C=CC(=O)N1CCN(c2nc(OCC3CCCN3C)nc3c2CCN(c2cccc4cccc(C)c24)C3)CC1CC#N	KRAS PDC multicell spheroid viability	%	46.8
CCNC(=O)CC1N=C(c2ccc(Cl)cc2)c2cc(OC)ccc2-n2c(C)nnc21 (stereo not drawn) + C=CC(=O)N1CCN(c2nc(=O)n(-c3c(C)ccnc3C(C)C)c3nc(-c4c(O)cccc4F)c(F)cc23)C(C)C1	KRAS PDC multicell spheroid viability	%	108

Here is the next item to consider.
Hello, I am looking for reported viability, T/C with KRAS PDC multicell spheroid viability for O=C(c1cc(Cc2n[nH]c(=O)c3ccccc23)ccc1F)N1CCN(C(=O)C2CC2)CC1 + C=CC(=O)N1CCN(c2nc(OCC3CCCN3C)nc3c2CCN(c2cccc4cccc(C)c24)C3)CC1CC#N . Could you help?
91.8

* * *

# Tested on: KRAS PDC multicell spheroid viability
# Assay method text: Anticancer human tumor 825966-067-R-J1-PDC cell line growth inhibition [KRAS2];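 further: spheroids exposed to compounds for 7 days; 100% = DMSO vehicle control viability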
# Condition set: second compound 10 µM; first compound 1 µM; hits give low values
Exam item: assign True to entries whose viability, T/C is below 6% and False to entries at or above 6%. Note that a value of exactly 6% receives False.

Compound	Class
COC(=O)c1ccc2c(C(=Nc3ccc(N(C)C(=O)CN4CCN(C)CC4)cc3)c3ccccc3)c(O)[nH]c2c1 + CNCc1ccccc1-c1csc(C(C)Nc2nc(C)nc3cc(OC)c(OC)cc23)c1	True
CC(C)NCC(C(=O)N1CCN(c2ncnc3c2C(C)CC3O)CC1)c1ccc(Cl)cc1 (stereo not given) + C=CC(=O)N1CCN(c2nc(=O)n(-c3c(C)ccnc3C(C)C)c3nc(-c4c(O)cccc4F)c(F)cc23)C(C)C1	False
CC(C)NCC(C(=O)N1CCN(c2ncnc3c2C(C)CC3O)CC1)c1ccc(Cl)cc1 (stereo not given) + COc1cc2nc(C)nc(NC(C)c3cc(N)cc(C(F)(F)F)c3)c2cc1OC1CCOC1	True

Say whether its viability, T/C is strictly beneath 6%. Entry: CCNC(=O)CC1N=C(c2ccc(Cl)cc2)c2cc(OC)ccc2-n2c(C)nnc21 (stereo not given) + CNCc1ccccc1-c1csc(C(C)Nc2nc(C)nc3cc(OC)c(OC)cc23)c1
True

How about this compound: CC(C)NCC(C(=O)N1CCN(c2ncnc3c2C(C)CC3O)CC1)c1ccc(Cl)cc1 (stereo not given) + CC1OCC2(CCN(c3cnc(Sc4ccnc(N)c4Cl)c(N)n3)CC2)C1N
False

* * *

# System: KRAS PDC multicell spheroid viability
# Assay method text: Anticancer human tumor 825966-067-R-J1-PDC cell line growth inhibition [KRAS2];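 further: spheroids exposed to compounds for 7 days; 100% = DMSO vehicle control viability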
# Condition set: second compound 0.0316 µM; first compound 0.0316 µM; hits give low values
viability, T/C by entry:
Quick note: give the figure in %, leave out the unit.

Worked cases, answers included:
Compound	Measured target	Unit of measurement	Observed measurement
Cn1nccc1Nc1nccc(-c2cc3c(s2)C(C)(C)N(CCN2CCOCC2)C3=O)n1 + C=CC(=O)N1CCN(c2nc(OCC3CCCN3C)nc3c2CCN(c2cccc4cccc(C)c24)C3)CC1CC#N	KRAS PDC multicell spheroid viability	%	108
O=C(c1cc(Cc2n[nH]c(=O)c3ccccc23)ccc1F)N1CCN(C(=O)C2CC2)CC1 + C=CC(=O)N1CCN(c2nc(OCC3CCCN3C)nc3c2CCN(c2cccc4cccc(C)c24)C3)CC1CC#N	KRAS PDC multicell spheroid viability	%	100

Hello, I am looking for reported viability, T/C with KRAS PDC multicell spheroid viability for CC(=O)OC12COC1CC(O)C1(C)C(=O)C(O)C3=C(C)C(OC(=O)C(O)C(NC(=O)OC(C)(C)C)c4ccccc4)CC(O)(C(OC(=O)c4ccccc4)C21)C3(C)C (stereo not drawn) + C=CC(=O)N1CCN(c2nc(OCC3CCCN3C)nc3c2CCN(c2cccc4cccc(C)c24)C3)CC1CC#N . Could you help?
28

* * *

# System: KRAS PDC multicell spheroid viability
# Assay method text: Anticancer human tumor 825966-067-R-J1-PDC cell line growth inhibition [KRAS2]; active = viability on the fitted dose curve at most 10% of control; inactive = the rest;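 further: spheroids exposed to compounds for 7 days; 100% = DMSO vehicle control viability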
# Condition set: second compound 3.16 µM; first compound 10 µM
Give your call using only these classes: active, inactive

Here are 3 compounds together with their reported answers.
Compound	Class
CCNC(=O)CC1N=C(c2ccc(Cl)cc2)c2cc(OC)ccc2-n2c(C)nnc21 (stereo not given) + CNCc1ccccc1-c1csc(C(C)Nc2nc(C)nc3cc(OC)c(OC)cc23)c1	active
CC1(C)CCC(CN2CCN(c3ccc(C(=O)NS(=O)(=O)c4ccc(NCC5CCOCC5)c([N+](=O)[O-])c4)c(Oc4cnc5[nH]ccc5c4)c3)CC2)=C(c2ccc(Cl)cc2)C1 + C=CC(=O)N1CCN(c2nc(OCC3CCCN3C)nc3c2CCN(c2cccc4cccc(C)c24)C3)CC1CC#N	active
CCNC(=O)CC1N=C(c2ccc(Cl)cc2)c2cc(OC)ccc2-n2c(C)nnc21 (stereo not given) + C=CC(=O)N1CCN(c2nc(OCC3CCCN3C)nc3c2CCN(c2cccc4cccc(C)c24)C3)CC1CC#N	inactive

Outcome logged for CC1(C)CCC(CN2CCN(c3ccc(C(=O)NS(=O)(=O)c4ccc(NCC5CCOCC5)c([N+](=O)[O-])c4)c(Oc4cnc5[nH]ccc5c4)c3)CC2)=C(c2ccc(Cl)cc2)C1 + CNCc1ccccc1-c1csc(C(C)Nc2nc(C)nc3cc(OC)c(OC)cc23)c1 in this assay:
active

How about this compound: COC(=O)c1ccc2c(C(=Nc3ccc(N(C)C(=O)CN4CCN(C)CC4)cc3)c3ccccc3)c(O)[nH]c2c1 + CC1OCC2(CCN(c3cnc(Sc4ccnc(N)c4Cl)c(N)n3)CC2)C1N
active

How about this compound: COc1cc2nccc(Oc3ccc(NC(=O)C4(C(=O)Nc5ccc(F)cc5)CC4)cc3)c2cc1OC + C=CC(=O)N1CCN(c2nc(=O)n(-c3c(C)ccnc3C(C)C)c3nc(-c4c(O)cccc4F)c(F)cc23)C(C)C1
active
